B1: TPR t1 (parent)
chain: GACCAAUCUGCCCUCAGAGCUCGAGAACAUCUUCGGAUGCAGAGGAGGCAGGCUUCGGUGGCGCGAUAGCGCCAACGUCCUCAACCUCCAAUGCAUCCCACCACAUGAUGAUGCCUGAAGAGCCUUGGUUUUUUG

Variants of: B1
Assay: polymerase ribozyme fitness, log enrichment relative to wild type (log ratio); higher = more active; in vitro selection for triplet polymerase activity
Classify as follows. Reported polymerase ribozyme fitness (log ratio) greater than or equal to -3: 1. Reported polymerase ribozyme fitness (log ratio) below: 0.

- C13G C15U G58C: 0
- A41C G69U: 1
- C4A A50G C70U A74G A84C C115A: 0
- C34A C64U: 1
- G10U C98A C123A: 0
- U38G C40U: 1
- G48U C72U: 1
- U9A C13A G51U C94G: 0
- C20G G48A G52A: 0
- G60C G63A: 0
- A74C G120U: 1
- C80G A121U: 0
- G47C C53U C124A: 1
- A6G G44C C49G: 1
- G48A C70A: 1
- A6U C15A C56A A75G A105C: 0
- G17C A91C: 0
- C3U C20A A46G C72G G113U: 1
- C72G C86A U87A: 0
- C12A A46U C49U A95G C99U A111G U116A: 0
- C40U C86G: 1
- U14A G44U G117U A118U: 0
- C40G G45U U106A U112A: 1
- A105U A111U: 0
- C8G C73G: 1
- U38A G61A: 1
- A46U C101A U130G: 1
- C34A A50G G113U G120C: 0
- C12G G110U U130A: 1
- C49G U55C C98U: 1
- C56U G69U G120U: 1
- C40U G51A G71C: 0
- A43C C56A A66U U112A: 0
- C8A C124G: 1
- C34A U109C: 0
- G60U U92C U106C G107A U112C: 0
- G48U C94G: 1
- U21C U38A C73A C123A: 1
- C11G C40U G63A: 1
- C72U G122U: 1
- G58C G71A C82G C88G: 1
- C3U C56G A83U C85A: 0
- A16U G57U: 1
- C8U C56U G61A A95U G120A: 0
